target under test: CIC-HMG/C1 fusion (UniProt Q96RK0-2 188-288+1401-1608, internal_change)
method description: EMSA
recorded endpoint: binding result

binder: DUSP6 site #5 (EMSA) (dsDNA) DNA 1: GGCAGCTTCATTGAGAGAGA DNA 2: TCTCTCTCAATGAAGCTGCC
result: binds

binder: DUSP6 site #4 (EMSA) (dsDNA) DNA 1: TTGGATTTCATTCACTGGGG DNA 2: CCCCAGTGAATGAAATCCAA
result: binds

binder: DUSP6 site #6 (EMSA) (dsDNA) DNA 1: GAGAGATTCATTGACACTAA DNA 2: TTAGTGTCAATGAATCTCTC
result: binds
